- System: T1, full-length recombinant human PAD4 (human, UniProt Q9UM07 1-663)
- T1 construct: Full-length recombinant; also called peptidylarginine deiminase 4
- T1 sequence (Q9UM07 whole entry): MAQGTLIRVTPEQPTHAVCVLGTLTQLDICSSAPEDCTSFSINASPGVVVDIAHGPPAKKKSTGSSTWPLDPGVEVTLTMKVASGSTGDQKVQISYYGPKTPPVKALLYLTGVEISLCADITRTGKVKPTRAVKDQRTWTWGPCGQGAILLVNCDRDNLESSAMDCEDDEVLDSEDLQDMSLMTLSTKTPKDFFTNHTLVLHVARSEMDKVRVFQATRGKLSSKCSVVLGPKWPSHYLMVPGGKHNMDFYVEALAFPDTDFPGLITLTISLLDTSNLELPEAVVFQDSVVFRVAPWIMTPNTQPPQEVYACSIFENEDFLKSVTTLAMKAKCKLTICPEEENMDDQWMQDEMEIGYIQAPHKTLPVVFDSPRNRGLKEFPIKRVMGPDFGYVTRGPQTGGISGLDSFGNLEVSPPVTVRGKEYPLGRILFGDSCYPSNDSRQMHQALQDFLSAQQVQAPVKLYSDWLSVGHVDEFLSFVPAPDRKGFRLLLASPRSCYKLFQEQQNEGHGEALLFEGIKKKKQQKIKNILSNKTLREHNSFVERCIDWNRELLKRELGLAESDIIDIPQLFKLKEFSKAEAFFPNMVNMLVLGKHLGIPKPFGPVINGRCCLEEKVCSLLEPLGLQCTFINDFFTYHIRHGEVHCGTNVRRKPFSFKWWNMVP
- Protocol Text: ELISA, immobilized human PAD4

Binder: humanized anti-PAD4 antibody derived from G8, VH H4.15 / VL L4.17 (antibody, human IgG1, kappa, V domains shown, IgG1 kappa; also called G8 H4.15/L4.17) VH: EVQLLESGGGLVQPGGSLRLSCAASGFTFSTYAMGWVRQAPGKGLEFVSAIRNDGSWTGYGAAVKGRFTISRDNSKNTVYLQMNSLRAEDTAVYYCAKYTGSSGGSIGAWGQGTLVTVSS VL: SYELTQPPSVSVSPGQTARITCSGGNRNYYYGWYQQKPGQAPVTVIYANDKRPSGIPERFSGSTSGNTTTLTISGVQAEDEADYYCGTADTGKYVFGGGTKLTVLG
O.D. 490/630 at 0.03125 µg/mL: 1.86
--
Binder: humanized anti-PAD4 antibody derived from G8, VH H4.15 / VL L4.06 (antibody, human IgG1, kappa, V domains shown, IgG1 kappa; also called G8 H4.15/L4.06) VH: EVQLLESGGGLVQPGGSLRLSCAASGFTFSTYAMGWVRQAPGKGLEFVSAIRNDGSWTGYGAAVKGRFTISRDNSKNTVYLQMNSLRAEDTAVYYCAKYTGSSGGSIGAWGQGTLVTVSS VL: SYELTQPPSVSVSPGQTARITCSGGNRNYYYGWYQQKPGQAPVTVIYANDKRPSGIPERFSGSYSGNTTTLTISGVQAEDEADYYCGTADTGKYVFGGGTKLTVLG
O.D. 490/630 at 0.03125 µg/mL: 1.9
--
Binder: humanized anti-PAD4 antibody derived from H7, VH H4.15 / VL L4.00 (antibody, IgG1, V domains shown, IgG1 kappa; also called H7 H4.15/L4.00) VH: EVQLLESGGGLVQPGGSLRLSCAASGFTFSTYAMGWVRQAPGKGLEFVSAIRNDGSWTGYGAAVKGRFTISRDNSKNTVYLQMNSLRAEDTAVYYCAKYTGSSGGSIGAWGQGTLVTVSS VL: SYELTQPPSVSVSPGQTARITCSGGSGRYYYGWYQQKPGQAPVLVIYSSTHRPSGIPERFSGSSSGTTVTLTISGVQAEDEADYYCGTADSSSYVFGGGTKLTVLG
O.D. 490/630 at 0.03125 µg/mL: 1.23
--
Binder: humanized anti-PAD4 antibody derived from H7, VH H4.32 / VL L4.17 (antibody, IgG1, V domains shown, IgG1 kappa; also called H7 H4.32/L4.17) VH: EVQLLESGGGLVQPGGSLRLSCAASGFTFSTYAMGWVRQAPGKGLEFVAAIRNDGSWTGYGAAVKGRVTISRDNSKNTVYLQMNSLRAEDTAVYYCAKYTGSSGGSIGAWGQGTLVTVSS VL: SYELTQPPSVSVSPGQTARITCSGGSGRYYYGWYQQKPGQAPVTVIYSSTHRPSGIPERFSGSTSGNTTTLTISGVQAEDEADYYCGTADSSSYVFGGGTKLTVLG
O.D. 490/630 at 0.03125 µg/mL: 1.95
--
Binder: humanized anti-PAD4 antibody derived from H7, VH H4.15 / VL L4.17 (antibody, IgG1, V domains shown, IgG1 kappa; also called H7 H4.15/L4.17) VH: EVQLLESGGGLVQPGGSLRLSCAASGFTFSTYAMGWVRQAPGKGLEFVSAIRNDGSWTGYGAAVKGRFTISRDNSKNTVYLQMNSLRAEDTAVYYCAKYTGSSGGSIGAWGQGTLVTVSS VL: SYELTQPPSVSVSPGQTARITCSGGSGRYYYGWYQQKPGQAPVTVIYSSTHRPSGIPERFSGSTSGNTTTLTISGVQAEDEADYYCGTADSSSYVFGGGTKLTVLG
O.D. 490/630 at 0.03125 µg/mL: 1.81

Value source: patent US20180044434A1
